B1: CDC14A (parent)
chain: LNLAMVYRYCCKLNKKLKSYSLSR

Variants of: B1
Assay: protein stability index of a GFP-peptide fusion (GPS, HEK-293T) (PSI 1-6); higher = more stable;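 also: lentivirally expressed fusions sorted by FACS into six bins by GFP to DsRed ratio, PSI derived from sequencing read proportions per bin multiplied by bin number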
Settings: c terminus: a fixed tail appended

| alteration | protein stability index |
| --- | --- |
| R24C | 3.05 |
| Y20H | 3.02 |
| M5V | 2.54 |
| K16F | 1.63 |
| K12T | 2.55 |
| Y20Q | 3.1 |
| S21M | 3.42 |
| L22R | 2.31 |
| R24H | 2.69 |
| M5Q | 1.56 |
| L17I | 2.95 |
| N2W | 3.17 |
| S21C | 3.76 |
| N14V | 1.78 |
| A4F | 3.74 |
| L13N | 1.89 |
| S23K | 3.42 |
| S19R | 3.44 |
| S19W | 3.46 |
| L3C | 4 |
| L3D | 2.29 |
| C11M | 2.74 |
| L1K | 2.73 |
| L17H | 2.21 |
| V6W | 3.43 |
| A4V | 2.74 |
| N2M | 3.27 |
| K12A | 2.1 |
| S23F | 2.69 |
| A4E | 2.43 |
| L13D | 2.11 |
| K12M | 2.19 |
| K16D | 2.56 |
| C10E | 1.98 |
| M5C | 4.65 |
| S21L | 2.25 |
